# Test Target: UniProtKB P31749
# Sequence (P31749 whole entry): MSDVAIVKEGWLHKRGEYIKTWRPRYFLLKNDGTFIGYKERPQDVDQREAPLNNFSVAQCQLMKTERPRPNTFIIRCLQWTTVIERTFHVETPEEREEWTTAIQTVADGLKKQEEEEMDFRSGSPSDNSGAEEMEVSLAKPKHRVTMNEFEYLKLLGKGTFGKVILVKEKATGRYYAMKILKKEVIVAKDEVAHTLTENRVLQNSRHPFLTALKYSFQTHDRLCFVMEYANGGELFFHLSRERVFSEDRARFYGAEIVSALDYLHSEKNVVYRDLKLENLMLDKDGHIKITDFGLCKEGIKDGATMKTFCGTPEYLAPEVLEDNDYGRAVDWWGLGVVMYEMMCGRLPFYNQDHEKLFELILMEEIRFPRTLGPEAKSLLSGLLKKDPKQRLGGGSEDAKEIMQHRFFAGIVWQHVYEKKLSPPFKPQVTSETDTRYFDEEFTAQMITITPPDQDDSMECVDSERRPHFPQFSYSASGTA
# Assay Protocol: Live cell AKT1 WT target engagement by NanoBRET competitive probe displacement
# Applied Conditions: HEK293 cells transfected with kinase-NanoLuciferase fusion, 2 h at 37° C.
pIC50: −log10 of the molar value.
Readout: pIC50

Compound	pIC50
C=CC(=O)N1CCC(N[C@H]2CCc3cc(-n4c(-c5ccc(F)cc5)nc5ccc(-n6cccn6)nc54)ccc32)CC1	5.51
C=CC(=O)N1CCN(CC2CCc3cc(-n4c(-c5cccnc5N)nc5ccc(-n6cccn6)nc54)ccc32)C[C@H]1C (single isomer, unassigned)	7.35
C/C=C/C(=O)N1CCC(N[C@H]2CCc3cc(-n4c(-c5cccnc5N)nc5ccc(-n6cccn6)nc54)ccc32)CC1	7.24

[a] C=CC(=O)N1CCN(NC2CCc3cc(-n4c(-c5cccnc5N)nc5ccc(-n6ccc(F)n6)nc54)ccc32)CC1 (single isomer, unassigned) [Example 201]
[b] C=CC(=O)Nc1cccc(F)c1C(=O)N[C@H]1CCc2cc(-n3c(-c4cccnc4N)nc4ccc(-n5cccn5)nc43)ccc21
[c] C=CC(=O)N1CCC(N[C@@H]2c3ccc(-n4c(-c5ccccc5)nc5ccc(-c6ccccc6)nc54)cc3CC2F)CC1 (single isomer, unassigned) [Example 324]
[d] C=CC(=O)N1CCN(N[C@@H]2CCc3cc(-n4c(-c5cccnc5N)nc5ccc(C6CC6)nc54)ccc32)CC1
[e] CC#CC(=O)N1CCC(N[C@H]2CCc3cc(-n4c(-c5cccnc5N)nc5ccc(-n6cccn6)nc54)ccc32)CC1
Endpoint returns the given compounds ordered by ascending pIC50. Output spec: a listing of the labels in the requested order.
d, c, a, e, b

[I] C=CC(=O)N1CCC2(CC1)CC(N[C@H]1CCc3cc(-n4c(-c5cccnc5N)nc5ccc(-n6cccn6)nc54)ccc31)C2
[II] C=CC(=O)N1CCC(N[C@H]2CCc3cc(-n4c(-c5cccnc5N)nc5ccc(-n6nccn6)nc54)ccc32)CC1
[III] C=CC(=O)N1C[C@@H]2[C@H](C1)[C@H]2NC1CCc2cc(-n3c(-c4cccnc4N)nc4ccc(-n5cccn5)nc43)ccc21 (single isomer, unassigned) [Example 346]
Put the items in sequence by pIC50, from largest down. Your reply should list the labels following the order given in the request.
II, I, III

* * *

# Test Target: AKT2 (Homo sapiens, UniProt P31751)
# Sequence (P31751 whole entry): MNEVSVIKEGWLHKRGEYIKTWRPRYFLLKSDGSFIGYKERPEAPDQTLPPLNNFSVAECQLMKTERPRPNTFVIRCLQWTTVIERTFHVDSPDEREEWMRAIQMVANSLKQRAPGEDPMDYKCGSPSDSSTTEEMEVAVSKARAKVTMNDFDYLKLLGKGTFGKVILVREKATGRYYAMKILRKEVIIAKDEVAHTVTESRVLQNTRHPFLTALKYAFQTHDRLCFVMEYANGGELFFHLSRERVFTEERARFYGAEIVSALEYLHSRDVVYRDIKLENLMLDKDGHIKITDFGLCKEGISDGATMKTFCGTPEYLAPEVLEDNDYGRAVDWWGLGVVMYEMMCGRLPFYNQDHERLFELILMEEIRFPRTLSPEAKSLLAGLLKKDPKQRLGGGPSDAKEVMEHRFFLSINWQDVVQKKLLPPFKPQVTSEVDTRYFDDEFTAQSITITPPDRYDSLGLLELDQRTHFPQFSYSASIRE
# Assay Protocol: Live cell AKT2 target engagement by NanoBRET competitive probe displacement
# Applied Conditions: HEK293 cells transfected with kinase-NanoLuciferase fusion, 2 h at 37° C.
Readout: IC50 (nM)

Compound	Test Target	Unit Name	Value Measured
C=CC(=O)N1CCC(N[C@H]2CCc3cc(-n4c(-c5cccnc5N)nc5ccc(C6CC6)nc54)ccc32)C(F)C1 (mixture of isomers) [Example 175]	AKT2 (Homo sapiens, UniProt P31751)	nM	123
C=CC(=O)Nc1c(F)cccc1C(=O)N[C@H]1CCc2cc(-n3c(-c4cccnc4N)nc4ccc(-n5cccn5)nc43)ccc21	AKT2 (Homo sapiens, UniProt P31751)	nM	103
C=CC(=O)N1CCC(N[C@H]2CCc3cc(-n4c(-c5cccnc5N)nc5ccc(-n6cccn6)nc54)ccc32)C[C@H]1C (single isomer, unassigned) [Example 62]	AKT2 (Homo sapiens, UniProt P31751)	nM	31.7
C=CC(=O)N1CCC(N[C@H]2CCc3cc(-n4c(-c5cccnc5N)nc5ccc(C)nc54)ccc32)CC1	AKT2 (Homo sapiens, UniProt P31751)	nM	348

[1] C=CC(=O)N1CCC(N[C@@H]2c3ccc(-n4c(-c5cccnc5N)nc5ccc(-n6cccn6)nc54)cc3CC2F)CC1C(F)F (single isomer, unassigned) [Example 302]
[2] C=C(F)C(=O)Nc1ccccc1C(=O)N[C@H]1CCc2cc(-n3c(-c4cccnc4N)nc4ccc(-n5cccn5)nc43)ccc21
Between the entries labelled 1 and 2 , which has a larger IC50 value on record? // return label of chosen record
2

Taken from patent US12570655B2.
